Measured values drawn from ChEMBL document CHEMBL4359861 for this set.

SUBJECT_OF_TEST: P2Y purinoceptor 14 (Homo sapiens)
Sequence (Q15391 whole entry): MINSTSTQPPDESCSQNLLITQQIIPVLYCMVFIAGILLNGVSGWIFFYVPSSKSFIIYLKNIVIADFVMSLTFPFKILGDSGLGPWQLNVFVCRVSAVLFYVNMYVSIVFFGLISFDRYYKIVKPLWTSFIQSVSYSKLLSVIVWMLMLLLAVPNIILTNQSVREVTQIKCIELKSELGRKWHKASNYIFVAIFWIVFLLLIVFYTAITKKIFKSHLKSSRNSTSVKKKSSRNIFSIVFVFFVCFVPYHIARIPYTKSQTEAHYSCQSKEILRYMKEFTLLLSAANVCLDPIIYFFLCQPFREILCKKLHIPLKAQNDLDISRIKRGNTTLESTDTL
RUN_DESCRIPTION: Antagonist activity at human P2Y14R stably expressed in human forskolin treated THP1 cells assessed as reduction in P2Y14R agonist UDPG-induced inhibition of cAMP production incubated for 15 mins by competitive enzyme-linked immunoassay
REPORTED_ENDPOINT: IC50 (nM)

Take a look at these entries with their results.
SMI | SUBJECT_OF_TEST | REPORTED_ENDPOINT | OBS_VALUE
O=C(O)c1cc(NC(=O)c2cnccn2)cc(-c2ccc(C3CCNCC3)cc2)c1 | P2Y purinoceptor 14 (Homo sapiens) | IC50 | 4.35
O=C(O)c1cc(NC(=O)c2ccncc2)cc(-c2ccc(C3CCNCC3)cc2)c1 | P2Y purinoceptor 14 (Homo sapiens) | IC50 | 3.17
O=C(O)c1cc(NC(=O)c2ccccc2)cc(-c2ccc(C3CCNCC3)cc2)c1 | P2Y purinoceptor 14 (Homo sapiens) | IC50 | 4.95
O=C(O)c1cc(NC(=O)c2ccc([N+](=O)[O-])cc2)cc(-c2ccc(C3CCNCC3)cc2)c1 | P2Y purinoceptor 14 (Homo sapiens) | IC50 | 5.06

A. Cc1ccc(C(=O)Nc2cc(C(=O)O)cc(-c3ccc(C4CCNCC4)cc3)c2)cc1
B. N#Cc1ccc(C(=O)Nc2cc(C(=O)O)cc(-c3ccc(C4CCNCC4)cc3)c2)cc1
Ask: API: POST /compare with A and B ; response names the item with higher IC50. Identify your selection by its label.
Result: B
